Recorded IC50 for the following compounds
Test system: SK-HEP1
protocol description: Cytotoxicity against human SKHEP1 cells after 48 hrs by MTT assay
Format: functional, cell-based
assay setup: SK-HEP1, 48 h
property measured: IC50

>>> df
                                   compound    result
0  Cc1cnc(N2C(=O)C3C(C2=O)[C@H]2C=C[C@@H]3CC2)s1 (stereo partly specified)  > 200 µM
1  Cc1cnc(/N=C2\OC(=O)C3C2[C@@H]2C=C[C@H]3CC2)s1 (stereo partly specified)  > 200 µM
2                O=C1c2ccccc2C(=O)N1c1nccs1  > 200 µM
3  O=C1OC(=O)C2C3CCC(O3)C12 (stereo unspecified)    126 µM
4     Cc1ccc2c(c1)C(=O)N(c1nc3ccccc3s1)C2=O  > 200 µM
5  O=C1C2C(C(=O)N1c1nccs1)[C@H]1C=C[C@@H]2CC1 (stereo partly specified)  > 200 µM
